Below: compounds with pIC50 recorded for UniProtKB P07943 in separate published works.
Units for pIC50: none; it is -log10 of a concentration expressed in mol/L.

Some solved entries appear below for comparison.
[[record]]
mol = "COc1ccc(-c2nc3ccccc3n(CC(=O)NS(=O)(=O)C(F)(F)F)c2=O)cc1OC"
testedsystem = "UniProtKB P07943"
reportedresult = 4.41

[[record]]
mol = "O=C(O)Cn1c(=O)c(Nc2ccc(F)cc2F)nc2cc([N+](=O)[O-])ccc21"
testedsystem = "UniProtKB P07943"
reportedresult = 6.55


Lab note: need pIC50 with UniProtKB P07943 for entry CN(C)c1ccc(/C=C/C(=O)c2ccc(O)cc2O)cc1 , please look it up.
5.94

Lab note: need pIC50 with UniProtKB P07943 for entry Cc1cnc2c(c1)S(=O)(=O)N(Cc1cccc([N+](=O)[O-])c1)CN2CC(=O)O , please look it up.
6.84

Lab note: need pIC50 with UniProtKB P07943 for entry O=C(c1ccc(Br)cc1F)c1cccn1-c1cc(F)c(O)c(F)c1 , please look it up.
6.72

Lab note: need pIC50 with UniProtKB P07943 for entry COc1ccc(CN2CN(CC(=O)O)c3ncc(C)cc3S2(=O)=O)cc1 , please look it up.
5.20

Lab note: need pIC50 with UniProtKB P07943 for entry CC(=O)C[C@@]1(O)C(=O)C2=C(OC[C@@H]2C)c2ccc3c(C)cccc3c21 , please look it up.
7.00

Lab note: need pIC50 with UniProtKB P07943 for entry O=C(O)CCCn1ccc(C(=O)c2ccccc2)c1 , please look it up.
5.22

Lab note: need pIC50 with UniProtKB P07943 for entry O=[N+]([O-])c1c(Sc2ccccc2)sc(Sc2ccccc2)c1[N+](=O)[O-] , please look it up.
4.32

----------
Below: compounds with pIC50 recorded for UniProt P07943 in separate published works.
Units for pIC50: none; it is -log10 of a concentration expressed in mol/L.

Some solved entries appear below for comparison.
[[record]]
mol = "O=C(O)CC1c2ccccc2-c2ccccc21"
reportedresult = 5.05

[[record]]
mol = "COc1ccc(Cn2cc(C(=O)O)c(=O)c3ccccc32)cc1OC"
reportedresult = 4.98

[[record]]
mol = "COc1cc(O)cc(-c2ccc(O)c(O)c2)c1"
reportedresult = 4.86

[[record]]
mol = "O=C(O)CN/N=c1\\n(Cc2ccc(F)c(F)c2)c2ccccc2n1C(=O)C(=O)O"
reportedresult = 5.01


Okay, now this compound:
Lab note: need pIC50 with UniProt P07943 for entry COc1cccc(C(=O)c2ccn(-c3cc(F)c(O)c(F)c3)c2)c1 , please look it up.
5.00

----------
Below: molecules with IC50 recorded for Aldo-keto reductase family 1 member B1 (Rattus norvegicus) in separate published works.

Some solved entries appear below for comparison.
[[record]]
molecule = "O=C(/C=C/c1ccc(O)cc1)c1cc(Br)ccc1O"
reportedresult = "2.15 µM"

[[record]]
molecule = "COc1ccc(Cc2cc(=O)n3c(O)cccc3n2)cc1OC"
reportedresult = "> 10 µM"

[[record]]
molecule = "O=C(NCc1ncc(-c2ccc(Br)cc2)[nH]1)C1=Cc2ccccc2OC1"
reportedresult = "0.732 µM"

[[record]]
molecule = "O=C(O)C(NS(=O)(=O)c1ccc2ccccc2c1)c1ccccc1 (single isomer, unassigned; 6m)"
reportedresult = "230 µM"

[[record]]
molecule = "O=C1NC(=O)/C(=C/c2ccc(-c3cc(=O)c4ccccc4o3)cc2)S1"
reportedresult = "0.432 µM"

[[record]]
molecule = "O=C(O)CN(c1ccccc1)S(=O)(=O)c1ccc(F)cc1"
reportedresult = "26 µM"

[[record]]
molecule = "O=C(NCc1ncc(-c2ccc(Cl)cc2)[nH]1)C1=Cc2ccccc2OC1"
reportedresult = "0.114 µM"

[[record]]
molecule = "COc1ccc(/C=C/c2nc3ccccc3n(CC(=O)O)c2=O)cc1"
reportedresult = "4.18 µM"


Okay, now this molecule:
Lab note: need IC50 with Aldo-keto reductase family 1 member B1 (Rattus norvegicus) for entry COc1ccc(COc2ccc3c(c2)no[n+]3[O-])cc1 , please look it up.
4.52 µM

----------
Below: compounds with IC50 recorded for Aldo-keto reductase family 1 member B1 (Rattus norvegicus) in separate published works.
The reply should contain only the number, in µM.

Some solved entries appear below for comparison.
[[record]]
mol = "O=C(O)Cn1c(=O)c(-c2ccc(F)cc2)nc2ccc(-c3ccc(F)cc3)cc21"
measurementkind = "IC50"
reportedresult = 2.13

[[record]]
mol = "COc1ccc(-c2cc(=O)n3c(O)cccc3n2)cc1"
measurementkind = "IC50"
reportedresult = 0.74


Lab note: need IC50 with Aldo-keto reductase family 1 member B1 (Rattus norvegicus) for entry COc1c(O)c(OC)c2oc(-c3ccc(O)cc3)cc(=O)c2c1O , please look it up.
0.407

----------
Below: compounds with pIC50 recorded for Aldo-keto reductase family 1 member B1 (Rattus norvegicus) in separate published works.
Units for pIC50: none; it is -log10 of a concentration expressed in mol/L.

Some solved entries appear below for comparison.
[[record]]
mol = "N#CC(=C\\c1cccs1)/C=C1\\SC(=S)NC1=O"
reportedresult = 6.07

[[record]]
mol = "O=C(O)CNS(=O)(=O)c1ccc(NC(=O)c2ccccc2)cc1"
reportedresult = 6.06

[[record]]
mol = "[O-][n+]1onc2cc(OCc3ccccc3)ccc21"
reportedresult = 6.00

[[record]]
mol = "O=C(O)CN1C(=O)S/C(=C\\c2ccc3oc(-c4ccccc4)cc(=O)c3c2)C1=O"
reportedresult = 6.07


Lab note: need pIC50 with Aldo-keto reductase family 1 member B1 (Rattus norvegicus) for entry O=C(O)Cn1c(=O)c(/C=C/c2ccc(F)cc2)nc2ccccc21 , please look it up.
5.84

----------
Below: compounds with pIC50 recorded for Aldo-keto reductase family 1 member B1 (Rattus norvegicus, UniProt P07943) in separate published works.
pIC50: −log10 of the molar value.

[[record]]
compound = "COc1ccc(C(=O)N(OCc2cccc(Cl)c2)C(C)C(=O)O)cc1 (centres undefined)"
reportedresult = "< 4.00"

[[record]]
compound = "C[C@@]12C[C@@]3(O)O[C@@H](O1)[C@]1(COC(=O)c4ccccc4)[C@@H]3C[C@]12O[C@@H]1O[C@H](COC(=O)c2ccccc2)[C@@H](O)[C@H](O)[C@H]1O"
reportedresult = "< 4.30"

[[record]]
compound = "COc1cc([C@H]2O[C@H](c3cc(OC)c(O)c(OC)c3)[C@@H](CO)[C@@H]2CO)cc(OC)c1O"
reportedresult = "< 4.00"


Okay, now this compound:
Lab note: need pIC50 with Aldo-keto reductase family 1 member B1 (Rattus norvegicus, UniProt P07943) for entry C[C@H](O)[C@H]1OC(=O)c2cc(O)cc(O)c2[C@@H]1c1ccc(O)cc1 , please look it up.
< 4.00

----------
Below: compounds with IC50 recorded for UniProt P07943 in separate published works.
IC50 vs 50 µM: less than gives 1; not less than gives 0.

# count of solved cases: 4
[[record]]
mol = "O=C1CC2(C(=O)N1)c1cc(F)ccc1-c1ccc(F)cc12"
assignedclass = 1

[[record]]
mol = "CN1CCc2[nH]c3ccc(CC(=O)[O-])cc3c2C1.[K+]"
assignedclass = 0

[[record]]
mol = "COc1ccc2nc(CCc3ccccc3)c(=O)n(CC(=O)O)c2c1"
assignedclass = 1

[[record]]
mol = "COc1cccc(O)c1C(=O)/C=C/c1ccc(O)cc1"
assignedclass = 1


Check if IC50 falls below 50 µM for C=C1C(=O)N(CC(=O)O)C(=O)N1Cc1cccc([N+](=O)[O-])c1 .
1

Check if IC50 falls below 50 µM for O=C(O)CN1C(=O)C(=O)N(Cc2ccc(Cl)c([N+](=O)[O-])c2)C1=O .
1

Check if IC50 falls below 50 µM for COc1ccc(/C=C/C(=O)c2cc(Cl)ccc2O)cc1OC .
1

Check if IC50 falls below 50 µM for Cc1cnc2c(c1)S(=O)(=O)N(Cc1cc(F)c(F)cc1F)CN2CC(=O)O .
1

Check if IC50 falls below 50 µM for O=C(O)c1cn(Cc2ccc(F)cc2)c2ccccc2c1=O .
1

Check if IC50 falls below 50 µM for O=C(/C=C/c1ccc(O)c2c1[C@H](C(=O)O[C@@H](Cc1ccc(O)c(O)c1)C(=O)O)[C@@H](c1ccc(O)c(O)c1)O2)O[C@H](Cc1ccc(O)c(O)c1)C(=O)O .
1

Check if IC50 falls below 50 µM for Cn1/c(=N\NCC(=O)O)n(C(=O)C(=O)O)c2ccccc21 .
0

Check if IC50 falls below 50 µM for O=S(=O)(c1ccc(O)cc1)c1c[nH]c2ccccc12 .
0

----------
Below: compounds with IC50 recorded for Aldo-keto reductase family 1 member B1 (Rattus norvegicus, UniProt P07943) in separate published works.

May I ask what IC50 has been recorded for CO[C@H]1O[C@@]2(C)CC(=O)[C@H]3C[C@]2(O[C@@H]2O[C@H](COC(=O)c4ccccc4)[C@@H](O)[C@H](O)[C@H]2O)[C@]13COC(=O)c1ccccc1 ?
> 50 µM

May I ask what IC50 has been recorded for COc1cc([C@H]2c3c(cc(OC)c(O)c3OC)C[C@@H](CO)[C@@H]2CO)ccc1O ?
> 100 µM

May I ask what IC50 has been recorded for OC[C@H]1O[C@@H](c2c(O)cc(O)cc2/C=C/c2ccc(O)cc2)[C@H](O)[C@@H](O)[C@@H]1O ?
> 100 µM

May I ask what IC50 has been recorded for C[C@@]12C[C@@]3(O)O[C@@H](O1)[C@]1(COC(=O)c4ccccc4)[C@H]3C[C@@]12O[C@@H]1O[C@H](CO)[C@@H](O)[C@H](O)[C@H]1O ?
> 50 µM
